Hey, just so you know, these numbers are from PubChem BioAssay (NCI).

test system: A498 renal; assay: NCI tumour cell line growth inhibition, 48 h; in the data active = GI50 below about 0.43 µM; inactive = the rest
Outcome codes: active, inactive

{"columns": ["Compound", "Assay Target", "Answer Label"],
 "data": [
  ["Cc1c(Cl)cccc1NC(=O)c1sc2nc3c(cc2c1N)C(=O)CCC3", "A498 renal", "active"],
  ["CC(C)(C)C(=O)c1c(C(F)(F)F)n([O-])c2cc(Cl)c(Cl)cc2[n+]1=O", "A498 renal", "inactive"],
  ["CC(=O)c1ccc2c3c1[C@H]1O[C@H]1c1cccc(c1-3)[C@@H]1O[C@H]21", "A498 renal", "inactive"],
  ["Oc1ccc(Cl)cc1Sc1cc(Cl)ccc1O", "A498 renal", "inactive"],
  ["Cc1ccnc2c(NC(C)CCCN)cc(O)c(O)c12 (stereo not given)", "A498 renal", "inactive"],
  ["COC(=O)c1c2c(c(C)[n+]([O-])c1C)C(=O)C(NCc1ccc(F)cc1)=CC2=O", "A498 renal", "inactive"],
  ["O=C(CSC(c1ccccc1)c1ccccc1)N/N=C/c1ccccc1Cl", "A498 renal", "inactive"],
  ["c1cc(C2CCCCC2)ccc1-c1cnc2nonc2n1", "A498 renal", "inactive"],
  ["C[C@H]1COCCN1c1nc(-c2cnc(N)cc2C(F)F)nc(N2CCOCC2)n1", "A498 renal", "active"],
  ["COc1cc2c(NC3CCN(C(C)C)CC3)nc(C3CCCCC3)nc2cc1OCCCN1CCCC1", "A498 renal", "inactive"]
]}
